The reported numbers originate from PubChem BioAssay (NCI).

Recorded growth values for a group of compounds are listed next.
Test system: SN12C renal
Test: NCI-60 one-dose screen, 48 h (100 = growth as untreated, 0 = no growth, -100 = all killed)
Settings: 10 µM unless noted
Method: Growth inhibition of the SN12C human tumor cell line is measured as a screen for anti-cancer activity. Cells are grown in 96 well plates and exposed to the test compound for 48 hours. Compounds are tested at a single concentration, which is 10^-5 M for most compounds. The reported endpoint is percent growth (GI% or GIPRCNT), where numbers from 0 - 100% represent growth inhibition, and numbers from -100% - 0 represent cell death. For example, a value of 40 represents 60% growth inhibition. […]
About 83,000 compounds went through this panel and 20% of them were active in at least one assay; those are over-represented in the sample as a whole.
Answer format: numeric, % implied, no suffix.

Form field: reported growth of NCCSC(C[N+](=O)[O-])c1ccccc1Cl (stereo not drawn)
104

Form field: reported growth of OCc1ccccn1
97.4

Form field: reported growth of CC1=NN(c2ccccc2)C(=O)C1C(=O)c1ccccc1 (stereo not drawn)
108

Form field: reported growth of C[N+](C)(C)CN1C(=O)c2ccccc2C1=O
100

More entries:
Form field: reported growth of N#C/C(=C1C=C/C(=N/O)C(Br)=C/1)c1ccccc1
32.7

Form field: reported growth of N#CCCOc1ccccc1
99.8

Form field: reported growth of CCCCCCCCCCCCOc1ccccc1C=O
93.7

Form field: reported growth of Cc1n[nH]c(=O)n(/N=C\c2c[nH]c3ccccc23)c1=O
99.8

Form field: reported growth of O=C(O)CSCc1nc2ccccc2[nH]1
93.1

Form field: reported growth of CCOC(=O)c1sc(N)nc1-c1ccccc1
104

Form field: reported growth of O=C(Cc1cccc2ccccc12)N/N=C/c1ccc2c(c1)CCC2
84

Form field: reported growth of O=C1c2ccccc2C(=O)N1/N=C/c1ccc2c(c1)OCO2
86.3

Form field: reported growth of CCCCCCCCCCCCCCCCOc1ccc(C)cc1
104

###

Test system: HOP-92 NSCLC
Test: NCI-60 one-dose screen, 48 h
Conditions: 100 µM
About 83,000 compounds went through this panel and 20% of them were active in at least one assay; those are over-represented in the sample as a whole. Active and inactive are the calls of the source. How the source made its calls: active means growth percent below 10; inactive means the rest.
Assign a class; possible classes are active, inactive

Some solved cases for reference:
Tell me the recorded outcome of this test for O=C(O)c1sccc1O .
inactive

Tell me the recorded outcome of this test for CCc1ccccc1-n1c(N)c(C#N)c(-c2ccc(OC)c(OC)c2)c(C#N)c1=O .
active

Tell me the recorded outcome of this test for CC#C[C@]1(O)CC[C@H]2[C@@H]3CCC4=CC(=O)CCC4=C3[C@@H](c3ccc4c(c3)OCO4)C[C@@]21C .
active

More entries:
Tell me the recorded outcome of this test for Cc1[nH]c(-c2nc3ccccc3[nH]2)c(C)c1C(=O)NC(C)C1CCCCC1 (stereo not given) .
active

Tell me the recorded outcome of this test for COc1ccc(Cl)cc1C(=O)NCCc1ccc(S(=O)(=O)NC(=O)NC2CCCCC2)cc1 .
inactive

###

Tested on: NCI-H522 lung
Test: NCI-60 one-dose screen, 48 h (100 = growth as untreated, 0 = no growth, -100 = all killed)
Conditions: 10 µM unless noted
About 83,000 compounds went through this panel and 20% of them were active in at least one assay; those are over-represented in the sample as a whole.
Endpoint: growth (%)
Answer format: numeric, % implied, no suffix.

Form field: reported growth of CCCCOc1cc(C(=O)NCCN(CC)CC)c2ccccc2n1
103

More entries:
Form field: reported growth of COc1cc(NS(C)(=O)=O)ccc1Nc1c2ccccc2nc2c(C)cccc12
-14.2

Form field: reported growth of NC(=O)c1ccccc1OCC(O)CO (configuration not stated)
98.4

Form field: reported growth of O=C(Cc1cccc2ccccc12)N/N=C/c1ccc2c(c1)CCC2
23.5

Form field: reported growth of CCCCCCCCCCCCCCCCOc1ccc(C)cc1
104

Form field: reported growth of Nc1n[nH]c(=S)n1-c1ccc(Cl)cc1
97.2

Form field: reported growth of N#C/C(=C/c1c(O)ccc2ccccc12)C(N)=O
76.4

###

System: UACC-257 melanoma
Assay: NCI-60 one-dose screen, 48 h (100 = growth as untreated, 0 = no growth, -100 = all killed)
Conditions: 10 µM
The panel holds about 83,000 compounds, 20% with a hit somewhere; the sample as a whole holds those more often. Calls of active or inactive are those of the source. How the source made its calls: active means growth percent below 10; inactive means the rest.
Endpoint: growth

// solved cases for growth follow
Form field: reported growth of CC1(C)OB(c2ccc(Cn3cc(F)c(=O)[nH]c3=O)cc2)OC1(C)C
103% (inactive)

Form field: reported growth of Cc1[nH]c(-c2nc3ccccc3[nH]2)c(C)c1C(=O)NC(C)C1CCCCC1 (stereo not given)
87% (inactive)

More entries:
Form field: reported growth of CC#C[C@]1(O)CC[C@H]2[C@@H]3CCC4=CC(=O)CCC4=C3[C@@H](c3ccc4c(c3)OCO4)C[C@@]21C
90.1% (inactive)

Form field: reported growth of CC(C)(C)c1cc(NC(=O)Cc2ccc(-c3cnc4cc(-c5cnn(CCN6CCOCC6)c5)ccc4n3)cc2)no1
27.1% (inactive)

Form field: reported growth of COc1ccc(Cl)cc1C(=O)NCCc1ccc(S(=O)(=O)NC(=O)NC2CCCCC2)cc1
106% (inactive)

###

Tested on: HT29 colon
Assay: NCI-60 one-dose screen, 48 h
Settings: 100 µM
Compounds without any hit were thinned out: in the full panel of roughly 83,000, 20% have a hit. Active and inactive are the calls of the source. Rule for the calls: active = growth percent below 10; inactive = the rest.
Assign a class; possible classes are active, inactive

Tell me the recorded outcome of this test for Cc1[nH]c(-c2nc3ccccc3[nH]2)c(C)c1C(=O)NC(C)C1CCCCC1 (centres undefined) .
active

More entries:
Tell me the recorded outcome of this test for O=C(O)c1sccc1O .
inactive

Tell me the recorded outcome of this test for CC#C[C@]1(O)CC[C@H]2[C@@H]3CCC4=CC(=O)CCC4=C3[C@@H](c3ccc4c(c3)OCO4)C[C@@]21C .
active

Tell me the recorded outcome of this test for CCc1ccccc1-n1c(N)c(C#N)c(-c2ccc(OC)c(OC)c2)c(C#N)c1=O .
inactive

###

Test system: RXF 393 renal
Assay: NCI-60 one-dose screen, 48 h (100 = growth as untreated, 0 = no growth, -100 = all killed)
Conditions: 10 µM
Compounds without any hit were thinned out: in the full panel of roughly 83,000, 20% have a hit. The source made the active and inactive calls. How the source made its calls: active means growth percent below 10; inactive means the rest.
Endpoint: growth

// solved cases for growth follow
Form field: reported growth of Cc1[nH]c(-c2nc3ccccc3[nH]2)c(C)c1C(=O)NC(C)C1CCCCC1 (stereo not given)
77.2% (inactive)

Form field: reported growth of CC1(C)OB(c2ccc(Cn3cc(F)c(=O)[nH]c3=O)cc2)OC1(C)C
99.7% (inactive)

More entries:
Form field: reported growth of O=C(O)c1sccc1O
84.6% (inactive)

Form field: reported growth of CNC(=O)c1cc(Oc2ccc(CC(=O)Nc3cc(C(C)(C)C)nn3C)cc2)ccn1
79.9% (inactive)

Form field: reported growth of CC#C[C@]1(O)CC[C@H]2[C@@H]3CCC4=CC(=O)CCC4=C3[C@@H](c3ccc4c(c3)OCO4)C[C@@]21C
69.5% (inactive)

###

Test system: CCRF-CEM leukemia
Experiment: NCI-60 one-dose screen, 48 h (100 = growth as untreated, 0 = no growth, -100 = all killed)
Conditions: 10 µM unless noted
Method: Growth inhibition of the CCRF-CEM human tumor cell line is measured as a screen for anti-cancer activity. Cells are grown in 96 well plates and exposed to the test compound for 48 hours. Compounds are tested at a single concentration, which is 10^-5 M for most compounds. The reported endpoint is percent growth (GI% or GIPRCNT), where numbers from 0 - 100% represent growth inhibition, and numbers from -100% - 0 represent cell death. For example, a value of 40 represents 60% growth inhibition. […]
This is part of a sample that, as a whole, favours compounds with a hit. Of some 83,000 tested, about 20% had one in any assay.
Recorded growth values for a group of compounds are listed next.
Answer format: numeric, % implied, no suffix.

// solved cases for growth follow
Form field: reported growth of CCN(CC)CCOc1ccc2c(c1)C(=O)c1cc(OCCN(CC)CC)ccc1-2
55.1

Form field: reported growth of CC(/C=N/N1C(=O)c2ccccc2C1=O)c1ccccc1 (stereo unspecified)
110

More entries:
Form field: reported growth of NC(=O)c1ccccc1OCC(O)CO (stereo unspecified)
93.6

Form field: reported growth of O=C(CN1CCOCC1)N1CCOCC1
106

Form field: reported growth of Cc1nn(-c2ccccc2)nc1C(=O)Nc1ccccc1C(=O)NCC1CC1
86.8

Form field: reported growth of C[N+](C)(C)CN1C(=O)c2ccccc2C1=O
101
